# Population Membrane Permeable-Phenotype (%) listing for each entry below
- Test system: U2OS
- Assay summary: Multiplex assay against U2OS
- Format: toxicity, cell-based
- Assay conditions: human, 48 h, 10 µM, compound concentration 10 uM, replicate 1
Reply numerically in %, unit not repeated.

Here is how some molecules turned out for Population Membrane Permeable-Phenotype (%).
Chem smiles	Units	Test value
C[C@@]1(C(=O)Nc2ccc(F)nc2)CCCN1c1nc(Nc2cc(C3CC3)n[nH]2)c2cccn2n1	%	13
Cn1cc(-c2[nH]c3cc(NC(=O)[C@H](N)C4CCCCC4)cc4c3c2C=NNC4=O)cn1	%	13
CC[C@H](C)C(=O)O[C@H]1C[C@@H](C)C=C2C=C[C@H](C)[C@H](CC[C@@H]3C[C@@H](O)CC(=O)O3)[C@H]21	%	3

query: For the molecule COc1cc2nccc(Oc3ccc(NC(=O)Nc4cc(C)on4)c(Cl)c3)c2cc1OC.O , what Population Membrane Permeable-Phenotype (%) is on record?
result: 86

---

- Test system: U2OS
- Assay summary: Multiplex assay against U2OS
- Format: toxicity, cell-based
- Assay conditions: human, 12 h, 1 µM, compound concentration 1 uM, replicate 1
Kindly return fulfilled if reported Population Healthy Nuclei (%) is no lower than 70%; return not fulfilled if it is lower.

query: API: above_or_equal(metric=Population Healthy Nuclei (%), cutoff=70%) for item C[C@@H](NCCCc1cccc(C(F)(F)F)c1)c1cccc2ccccc12.Cl [CINACALCET HYDROCHLORIDE]
result: fulfilled

query: Is Population Healthy Nuclei (%) at least 70%? Consider COc1ncc(-c2ccc3nccc(-c4ccnnc4)c3c2)cc1NS(=O)(=O)c1ccc(F)cc1F
result: not fulfilled

query: Record CCN(CC)CCCCNc1ncc2cc(-c3cc(OC)cc(OC)c3)c(NC(=O)NC(C)(C)C)nc2n1 ; criterion: Population Healthy Nuclei (%) no lower than 70%. Met?
result: not fulfilled

query: Test whether the molecule c1cn2cc(-c3ccc4cn[nH]c4c3)nc(Nc3ccc(N4CCOCC4)cc3)c2n1 records Population Healthy Nuclei (%) of 70% or higher.
result: not fulfilled

query: In plain terms: is recorded Population Healthy Nuclei (%) at least 70% for CC(C)NCC(O)COc1ccc(CCOCC2CC2)cc1.Cl (configuration not stated) [BETAXOLOL HYDROCHLORIDE] ?
result: fulfilled

query: Say whether Cc1c(-c2ccc(O)cc2)n(Cc2ccc(OCCN3CCCCCC3)cc2)c2ccc(O)cc12 shows Population Healthy Nuclei (%) of 70% or more.
result: not fulfilled

query: Is it the case that CN1CCN(c2ccc(OC(F)(F)F)c(Nc3ncc4c(n3)-c3c(c(C(N)=O)nn3CCO)CC4)c2)CC1 has Population Healthy Nuclei (%) reaching or exceeding 70%?
result: fulfilled

query: Test whether the molecule Cn1cc(-c2[nH]c3cc(NC(=O)[C@H](N)C4CCCCC4)cc4c3c2C=NNC4=O)cn1 records Population Healthy Nuclei (%) of 70% or higher.
result: fulfilled

query: Assess whether reported Population Healthy Nuclei (%) for OC1(c2ccc(Cl)cc2)CCN(Cc2c[nH]c3ccccc23)CC1 sits at 70% or higher.
result: fulfilled

query: Form field: Population Healthy Nuclei (%) at least 70%? Entry: Cc1cc(C)cc(-c2cnc3cc(Cl)c(-c4cccc(O)c4)cc3c2OCCCN)c1
result: fulfilled

query: Please tell me: is the molecule O=C1NCN(c2ccccc2)C12CCN(CCCOc1ccc(F)cc1)CC2 [SPIRAMIDE] at or over 70% in terms of Population Healthy Nuclei (%)?
result: fulfilled

---

- System: HEK-293T
- Assay summary: Multiplex assay against HEK293T
- Type: toxicity, cell-based
- Assay conditions: human, 24 h, 1 µM, compound concentration 1 uM, replicate 1
Lab note: cut-off is 40%. Strictly less in Population Healthy Nuclei (%) is 1.0. Exactly 40% or more is 0.0.

// below: answered compounds
Compound	Group label
C=CC(=O)Nc1cc2c(Nc3ccc(F)c(Cl)c3)ncnc2cc1OCCCN1CCOCC1.Cl.Cl [CANERTINIB DIHYDROCHLORIDE]	1.0
CC[C@H](C)C(=O)O[C@H]1C[C@@H](C)C=C2C=C[C@H](C)[C@H](CC[C@@H]3C[C@@H](O)CC(=O)O3)[C@H]21 [LOVASTATIN]	1.0
COc1cccc([C@@H](C)NCCCc2ccccc2Cl)c1.Cl [TECALCET HYDROCHLORIDE]	0.0
C=CC(=O)Nc1cccc(C(=O)Nc2ccc(Nc3cc(-c4[nH]c(SC)nc4C)ccn3)cc2)c1	1.0
C[C@@]1(C(=O)Nc2ccc(F)nc2)CCCN1c1nc(Nc2cc(C3CC3)n[nH]2)c2cccn2n1 [BMS-754807]	0.0

query: Please determine if CNc1nc(NCc2ccc(NS(C)(=O)=O)cc2Cl)cc(-c2ccccn2)n1 is below 40% in terms of Population Healthy Nuclei (%).
result: 0.0

query: Say whether its Population Healthy Nuclei (%) is strictly beneath 40%. Entry: CC(C)NCC(O)COc1ccc(CCOCC2CC2)cc1.Cl (stereo not drawn) [BETAXOLOL HYDROCHLORIDE]
result: 0.0

---

- Test system: Fibroblast
- Assay summary: Multiplex assay against human fibroblast
- Format: toxicity, cell-based
- Assay conditions: 24 h, 1 µM, compound concentration 1 uM, replicate 2
Outcome: t for Population Membrane Permeable-Phenotype (%) of at least 7%; f for anything lower.

Record excerpt, results attached:
Compound	Group label
C=CC(=O)Nc1cc2c(Nc3ccc(F)c(Cl)c3)ncnc2cc1OCCCN1CCOCC1.Cl.Cl [CANERTINIB DIHYDROCHLORIDE]	t
CN1CCN(c2ccc(OC(F)(F)F)c(Nc3ncc4c(n3)-c3c(c(C(N)=O)nn3CCO)CC4)c2)CC1 [ONVANSERTIB]	f
CN1CCCC(n2nc(Cc3ccc(Cl)cc3)c3ccccc3c2=O)CC1.Cl (configuration not stated) [AZELASTINE HYDROCHLORIDE]	t
NC(=O)Nc1cc(-c2cccc(F)c2)sc1C(=O)N[C@H]1CCCNC1 [AZD-7762]	t
Cc1nc(Nc2n[nH]c3c2CN(C(=O)N[C@H](CN(C)C)c2ccccc2)C3(C)C)c2sccc2n1 [PF-03758309]	f

Proceed to the following item.
query: Given the entry CC[C@H](C)C(=O)O[C@H]1C[C@@H](C)C=C2C=C[C@H](C)[C@H](CC[C@@H]3C[C@@H](O)CC(=O)O3)[C@H]21 [LOVASTATIN] , answer whether its Population Membrane Permeable-Phenotype (%) meets or surpasses 7%.
result: f

---

Listed next: entries and their corresponding Growth Rate.
- Test system: HEK-293T
- Assay summary: Incucyte cell viability with HEK293T; note: filed as whole numbers so only -1 and 0 and 1 occur
- Assay type: toxicity, cell-based
- Assay conditions: human, 18 h, 10 µM, compound concentration 10 uM, replicate number 1, timepoint 18 hours

query: Give the measured Growth Rate of C[C@H](c1ccc(F)cc1)N(Cc1ccc(Cl)c(C(=O)O)c1)C(=O)c1cnc2ccccc2c1 .
result: 0

query: I would be grateful if you could share the reported Growth Rate for Cc1nc(-c2ccc(-c3ccc(C(=O)N4CCc5cc6c(cc54)C4(CCN(C)CC4)CO6)cc3)c(C)c2)no1 .
result: 0

query: Fill in the blank: the reported Growth Rate of CC(C)(C)NCC(O)COc1cccc2[nH]c(=O)[nH]c12.Cl (configuration not stated) is ____.
result: 1

query: Param item = O=C(NCCCN1CCOC1=O)c1cnc(NCc2cc(Br)ccc2Br)nc1NC1CCCC1 ; retrieve measured Growth Rate.
result: 1

query: Please report the recorded Growth Rate for CSc1ccc(C(=O)N[C@@H]2CCCC[C@@H]2NC(=O)CNC(=O)c2cc(C(F)(F)F)ccc2NC(=O)NC(C)C)cc1 .
result: 0

query: Look up Growth Rate: O=C(O)C[C@H]1CCc2c1[nH]c1ccc(OCc3ccc(C4CCCC4)c(C(F)(F)F)c3)cc21
result: 0

query: Could you share which Growth Rate value was measured for Cn1cncc1[C@@](O)(COc1ccc(C#N)cc1-c1ccc(OC(F)(F)F)cc1)c1ccc(C#N)cc1 ?
result: 0

query: Look up Growth Rate: Cc1nc(Nc2n[nH]c3c2CN(C(=O)N[C@H](CN(C)C)c2ccccc2)C3(C)C)c2sccc2n1
result: 0

query: Item under review: COc1ncc(-c2ccc3nccc(-c4ccnnc4)c3c2)cc1NS(=O)(=O)c1ccc(F)cc1F . Reported Growth Rate?
result: 0

query: Consider the molecule shown here: O=C(Nc1cnc(Oc2ccc(F)cc2)nc1)N1CCc2ncccc2[C@@H]1c1ccc(F)cc1 What is its recorded Growth Rate?
result: 0

---

# Lookup of reported Population Mitochondria Different-Phenotype (%) keyed by entry
- Test system: U2OS
- Assay summary: Multiplex assay against U2OS
- Type: toxicity, cell-based
- Assay conditions: human, 24 h, 1 µM, compound concentration 1 uM, replicate 1
Note: unit % is implicit; provide only the numeric part.

Some molecules with recorded Population Mitochondria Different-Phenotype (%):
Molecule	Target or system	Test value
C=CC(=O)Nc1cccc(C(=O)Nc2ccc(Nc3cc(-c4[nH]c(SC)nc4C)ccn3)cc2)c1	U2OS	5
NC(=O)Nc1cc(-c2cccc(F)c2)sc1C(=O)N[C@H]1CCCNC1	U2OS	21
CN1CCN(CCOc2cc(OC3CCOCC3)c3c(Nc4c(Cl)ccc5c4OCO5)ncnc3c2)CC1	U2OS	17
CN(C)C(=O)/C(C#N)=C/c1ccc(-c2nc3cnc4[nH]ccc4c3n2C2CCCCC2)o1	U2OS	8
C=CC(=O)Nc1cc2c(Nc3ccc(F)c(Cl)c3)ncnc2cc1OCCCN1CCOCC1.Cl.Cl [CANERTINIB DIHYDROCHLORIDE]	U2OS	100
CC(C)NCC(O)COc1ccc(CCOCC2CC2)cc1.Cl (configuration not stated) [BETAXOLOL HYDROCHLORIDE]	U2OS	10
c1cn2cc(-c3ccc4cn[nH]c4c3)nc(Nc3ccc(N4CCOCC4)cc3)c2n1	U2OS	33
Cl.N#Cc1ccc2[nH]cc(CCCCN3CCN(c4ccc5oc(C(N)=O)cc5c4)CC3)c2c1 [VILAZODONE HYDROCHLORIDE]	U2OS	26

query: Name the recorded Population Mitochondria Different-Phenotype (%) for O=C1NCN(c2ccccc2)C12CCN(CCCOc1ccc(F)cc1)CC2 [SPIRAMIDE] .
result: 5

query: Which Population Mitochondria Different-Phenotype (%) is listed for Cc1cc(C)cc(-c2cnc3cc(Cl)c(-c4cccc(O)c4)cc3c2OCCCN)c1 ?
result: 75

query: Return reported Population Mitochondria Different-Phenotype (%); argument: CN1CCCC(n2nc(Cc3ccc(Cl)cc3)c3ccccc3c2=O)CC1.Cl (configuration not stated) [AZELASTINE HYDROCHLORIDE]
result: 70

query: Reported Population Mitochondria Different-Phenotype (%) for COc1cc(-n2cnc3cc(-c4ccc(Cl)cc4)sc3c2=O)ccc1OCCN1CCCC1 : what is it?
result: 45
